bioavailability: recorded values
test: Oral bioavailability in C57BL/6J mouse at 10 mg/kg; assay type: ADME, organism-based; settings: in vivo
Please respond with the number in % and leave the unit unwritten.

Sample answers from the record:
>>> result("CCCn1c(=O)c2[nH]c(-c3cnn(CC#Cc4cccc(C(=O)O)c4)c3)nc2n(CCC)c1=O")
10
>>> result("CCCn1c(=O)c2[nH]c(-c3cnn(CC#Cc4cccc(OC(F)(F)F)c4)c3)nc2n(CCC)c1=O")
42

Then this compound:
Enquiry: Look at this compound and give its reported bioavailability. CCCn1c(=O)c2[nH]c(-c3cnn(CC#Cc4cccc(OC(F)(F)F)c4)c3)nc2n(CC)c1=O
Return: 76

These measurements were taken from ChEMBL document CHEMBL4020725.
